target: recombinant TFPI of the FXa restoring assay (human, mouse or rat; species not stated for Tables 9 and 10); assay: cell-based or functional assay

[
  {
    "Binder": "4B7 HC D62R (Fab, V domains shown) VH: QVQLQQSGPGLVKPSQTLSLTCAISGDSVSSNSAAWSWIRQSPGRGLEWLGIIYKRSKWYNRYAVSVKSRITINPDTSKNQFSLQLNSVTPEDTAVYYCARWHSDKHWGFDYWGQGTLVTVSS VL: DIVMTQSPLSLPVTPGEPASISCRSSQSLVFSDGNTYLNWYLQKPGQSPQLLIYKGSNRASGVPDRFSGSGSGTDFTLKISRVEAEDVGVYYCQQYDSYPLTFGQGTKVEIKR",
    "IC 50, FXa restoring assay": "0.058 µg/mL"
  },
  {
    "Binder": "2A8 HC S54F (Fab, V domains shown) VH: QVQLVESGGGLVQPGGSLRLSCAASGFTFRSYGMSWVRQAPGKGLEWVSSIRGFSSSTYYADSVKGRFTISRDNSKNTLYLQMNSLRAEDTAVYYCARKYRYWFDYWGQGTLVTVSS VL: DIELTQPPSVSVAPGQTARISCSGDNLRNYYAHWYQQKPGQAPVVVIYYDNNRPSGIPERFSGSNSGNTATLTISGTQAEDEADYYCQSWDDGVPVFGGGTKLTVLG",
    "IC 50, FXa restoring assay": "0.35 µg/mL"
  },
  {
    "Binder": "2A8 HC S35D (Fab, V domains shown) VH: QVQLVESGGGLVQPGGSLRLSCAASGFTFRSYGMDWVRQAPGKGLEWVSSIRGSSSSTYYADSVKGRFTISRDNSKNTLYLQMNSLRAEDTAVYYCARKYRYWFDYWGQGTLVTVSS VL: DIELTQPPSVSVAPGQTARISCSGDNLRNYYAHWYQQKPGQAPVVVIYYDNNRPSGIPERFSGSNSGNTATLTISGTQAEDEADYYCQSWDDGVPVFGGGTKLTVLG",
    "IC 50, FXa restoring assay": "0.55 µg/mL"
  },
  {
    "Binder": "2A8 LC D91W (Fab, V domains shown) VH: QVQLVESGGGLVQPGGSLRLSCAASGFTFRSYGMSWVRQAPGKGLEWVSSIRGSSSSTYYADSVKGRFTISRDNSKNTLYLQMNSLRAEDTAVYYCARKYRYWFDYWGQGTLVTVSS VL: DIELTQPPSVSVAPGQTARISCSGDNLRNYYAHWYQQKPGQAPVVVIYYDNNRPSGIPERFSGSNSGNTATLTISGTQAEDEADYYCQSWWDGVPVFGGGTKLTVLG",
    "IC 50, FXa restoring assay": "0.23 µg/mL"
  }
]

Data origin: patent US20120108796A1
